# System: SK-Hep-1 cells
# Protocol: Cell viability assay (Cell Titer-Glo)
# Assay type: cell-based
# Setup Conditions: Homo sapiens, SK-HEP1, 72 h, 95% confidence interval in square brackets
pIC50: −log10 of the molar value.
Test Readout: pIC50

Compound | Experimental Target | pIC50
CC(C)=CCC/C(C)=C/CC/C(C)=C/CC/C(C)=C/CC1=C(C)C(=O)c2ccccc2C1=O [MK-4, menaquinone-4, reference compound] | SK-Hep-1 cells | 4.10

(P) CC(=O)Oc1c(C)c(C/C=C(\C)CC/C=C(\C)CC/C=C(\C)CCC=C(C)C)c(OC(C)=O)c2ccccc12 [MKH-ACT, Menahydroquinone-4 1,4-bis acetate]
(Q) CC(C)=CCC/C(C)=C/CC/C(C)=C/CC/C(C)=C/Cc1c(C)c(OC(=O)CCC(=O)O)c2ccccc2c1OC(=O)CCC(=O)O [MKH-SUC, Menahydroquinone-4 1,4-bis hemisuccinate]
(R) CC(C)=CCC/C(C)=C/CC/C(C)=C/CC/C(C)=C/Cc1c(C)c(OC(=O)CN(C)C)c2ccccc2c1OC(=O)CN(C)C
IN: Please put the entries in order of rising pIC50. Arrange the labels as the request states and list them.
OUT: P, R, Q

meta.source: paper PMC6100056
